Target: SHP2-C SH2
Test: SH2 binding enrichment of the phosphorylated peptide, bacterial display (enrichment ratio); higher = better substrate or ligand; peptides without Tyr show the background
Readout Name: SH2 binding enrichment

Past entries and their recorded results:
MSPPGYKLVTG [GJA1_Y286]
0.512
WSRAMYPDLGP [STARD8_Y330]
0.933
LTSVKYLLSAT [GSDMC_Y26_P23S]
0.801

(a) GREEFYVHYVG [KAT8_Y90]
(b) QLYGPYLRIHA [BSCL2_Y213_A212P]
Incoming: Between a and b , whose measured SH2 binding enrichment reads higher? To answer, give the label that identifies your chosen option.
Outgoing: a

====

Target: SHP2-C SH2;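 note: peptide library displayed on the E. coli surface as eCPX fusions, selected cells deep-sequenced, score is each peptide's frequency after selection divided by its frequency in the input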
Assay: SH2 binding enrichment of the phosphorylated peptide, bacterial display (enrichment ratio); higher = better substrate or ligand; peptides without Tyr show the background
Readout Name: SH2 binding enrichment

Example entries and their recorded answers appear below.
ITQRAYRRHLL [SCN1A_Y1926_I1922T]
0.585
TIQSMYGCDVG [HLA-B_Y123_L119I]
1.01
AVARPYHIQKW [ACSBG1_Y677_A673V]
1.31

(I) IYHLSYLHNCE [PDE6B_Y227]
(II) EIIPFYGMSSF [FNDC3B_Y175_T179S_YF]
Incoming: Two entries are listed, I and II . Which one carries the higher SH2 binding enrichment? Write down the label attached to your selection.
Outgoing: I

(1) GVRFIYTIDGS [DCX_Y105_YF]
(2) ADRNHYRRFPR [YBX1_Y145_YF]
(3) PSSNLYYRWLT [CNGA3_Y168]
Incoming: Endpoint returns the given sequences ordered by ascending SH2 binding enrichment. Labels, requested order.
Outgoing: 2, 1, 3

(a) FCRHNYGAVES [HLA-DRB1_Y112_V114A_YF]
(b) TESNNYIFKTL [FAM83B_Y637_YF]
Incoming: Between item a and item b , which reported SH2 binding enrichment is smaller? Identify your selection by its label.
Outgoing: a
(a: 0.816, b: 1.2)

(P) QISSNYDDAMQ [ZNF281_Y531]
(Q) SRIWVYNHYRW [BRCA2_Y2621]
(R) EAKENYGKTLK [CHL1_Y291_T287A]
Incoming: Ranking field: SH2 binding enrichment; order: falling. Lab note: record answer as labels in requested order.
Outgoing: Q, P, R

====

Biological target: Fes (UniProt P07332)
Sequence (P07332 whole entry, looked up): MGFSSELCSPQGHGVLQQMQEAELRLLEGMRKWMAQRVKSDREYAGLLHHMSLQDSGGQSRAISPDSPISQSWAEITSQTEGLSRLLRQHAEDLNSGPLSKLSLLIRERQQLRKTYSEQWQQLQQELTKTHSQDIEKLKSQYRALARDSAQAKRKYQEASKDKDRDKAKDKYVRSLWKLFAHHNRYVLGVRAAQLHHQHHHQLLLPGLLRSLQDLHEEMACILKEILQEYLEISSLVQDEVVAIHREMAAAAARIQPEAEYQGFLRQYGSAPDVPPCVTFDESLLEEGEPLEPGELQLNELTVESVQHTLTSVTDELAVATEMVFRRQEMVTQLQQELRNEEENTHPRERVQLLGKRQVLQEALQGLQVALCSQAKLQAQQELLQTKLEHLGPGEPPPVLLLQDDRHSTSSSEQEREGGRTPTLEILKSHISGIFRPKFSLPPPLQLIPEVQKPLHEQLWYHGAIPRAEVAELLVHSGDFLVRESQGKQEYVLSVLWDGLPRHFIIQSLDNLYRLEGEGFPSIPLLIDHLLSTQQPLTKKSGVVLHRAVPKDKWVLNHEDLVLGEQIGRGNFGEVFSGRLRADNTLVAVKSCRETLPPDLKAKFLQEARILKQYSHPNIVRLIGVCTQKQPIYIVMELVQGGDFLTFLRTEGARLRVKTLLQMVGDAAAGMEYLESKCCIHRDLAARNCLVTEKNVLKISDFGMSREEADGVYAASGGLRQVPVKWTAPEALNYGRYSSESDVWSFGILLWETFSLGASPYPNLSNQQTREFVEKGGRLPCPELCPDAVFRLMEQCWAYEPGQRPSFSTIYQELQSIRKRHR
Test: phosphorylation enrichment, bacterial display (enrichment ratio); higher = better substrate or ligand; peptides without Tyr show the background
Below is a list of entries, each paired with its recorded phosphorylation enrichment value.
Kindly provide the number alone.

Consider the following illustrative entries.
ANNPLYKEVTS [ITGB3_Y773_A776V]
0.797
NTCNRYCCDEI [ITGB3_Y660_R662C]
1.49
KQELVYPNKKL [OPTN_Y356_T357P]
0.743
KIKGRYEKCEP [KRT26_Y119_W118R]
1.13
TMKSHYMELYD [BBS2_Y644_R643H]
1.01
PKGTGYIKTEL [STAT1_Y701]
0.835
MEIHAYHKLLE [LMNA_Y376_R377H]
1.25
RLLVVYPWTKR [HBB_Y36_Q40K]
0.829
DTLMEYLENPK [CYCS_Y68]
1.49
WGTAEYDSVVA [MAP1A_Y1883]
1.24

phosphorylation enrichment measured on EAIAKYDLKAT [GRB2_Y7_F9L] = 0.713

phosphorylation enrichment in this record for SIDLGYHKDLQ [NF1_Y1169_G1166D] : 0.777

phosphorylation enrichment in this record for SSNLFYRWLTA [CNGA3_Y169_YF] : 0.982

Form field phosphorylation enrichment, entry YRVAGYETQGG [TIA1_Y383] : 0.646

====

# phosphorylation enrichment listing for each entry below
Test system: c-Abl (mouse)
Assay: phosphorylation enrichment, bacterial display (enrichment ratio); higher = better substrate or ligand; peptides without Tyr show the background
Respond numerically, and do not add a unit to the figure.

QMIETYFDFRV [NSMF_Y506_L511V]
0.887
GFPVRYTDVSN [DNMT3B_Y815_H814R]
0.529
VFLGAYDHFLP [SLC22A5_Y486_R488H_YF]
1.06
PKGTGYIKTEL [STAT1_Y701]
0.559
ISNATYKEIGL [FLT1_Y199]
0.467
TTKGSYSLSVR [HCK_Y180]
0.624
MEIHAYHKLLE [LMNA_Y376_R377H]
0.691
FGMSTYITRED [FNDC3B_Y180_YF]
0.693
TEAEPYYRSLR [NPHS1_Y1138]
0.722
TDEYEYDELIV [TGM1_Y136]
0.705

phosphorylation enrichment in this record for LTSVKYLLSAT [GSDMC_Y26_P23S] : 0.437

Notebook: DDYDLYGGEKF [PTPN11_Y66_Y62D] , phosphorylation enrichment read as 0.871

Given item HFVDEYDRTIE [KRAS_Y32_P34R] , the value recorded as its phosphorylation enrichment is 1.36

phosphorylation enrichment in this record for ANNPLYKEVTS [ITGB3_Y773_A776V] : 0.584

Per the records, this sequence ( QMVGMYASSFM [AVPR2_Y124_YF] ) has phosphorylation enrichment equal to 1.48

====

Target: FGFR3 (UniProt P22607)
Sequence (P22607 whole entry, looked up): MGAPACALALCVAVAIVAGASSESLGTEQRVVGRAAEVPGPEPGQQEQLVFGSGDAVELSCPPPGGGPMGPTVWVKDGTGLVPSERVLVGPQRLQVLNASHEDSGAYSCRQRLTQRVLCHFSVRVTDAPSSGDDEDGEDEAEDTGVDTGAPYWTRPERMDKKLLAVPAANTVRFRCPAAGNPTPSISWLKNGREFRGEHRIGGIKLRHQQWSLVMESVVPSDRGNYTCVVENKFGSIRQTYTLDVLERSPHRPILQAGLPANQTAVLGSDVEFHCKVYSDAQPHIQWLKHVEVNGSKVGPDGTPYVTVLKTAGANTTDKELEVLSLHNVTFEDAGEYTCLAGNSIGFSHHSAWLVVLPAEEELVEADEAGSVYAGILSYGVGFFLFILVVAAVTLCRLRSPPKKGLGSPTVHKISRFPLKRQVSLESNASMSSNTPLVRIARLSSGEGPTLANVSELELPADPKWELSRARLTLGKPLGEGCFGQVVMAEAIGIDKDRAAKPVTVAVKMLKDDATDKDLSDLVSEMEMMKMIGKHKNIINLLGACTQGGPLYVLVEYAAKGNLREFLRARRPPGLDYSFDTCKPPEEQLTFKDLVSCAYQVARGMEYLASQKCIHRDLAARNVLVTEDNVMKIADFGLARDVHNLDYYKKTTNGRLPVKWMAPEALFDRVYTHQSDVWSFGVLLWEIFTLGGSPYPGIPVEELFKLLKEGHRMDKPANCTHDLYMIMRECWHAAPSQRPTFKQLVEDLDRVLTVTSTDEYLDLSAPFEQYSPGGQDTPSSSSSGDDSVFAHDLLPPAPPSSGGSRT
Experiment: phosphorylation enrichment, bacterial display (enrichment ratio); higher = better substrate or ligand; peptides without Tyr show the background
// values below are reported phosphorylation enrichment
Reply briefly: the number, and no unit.

SQPASYQRRLL [PPIG_Y320]
0.396

Reported phosphorylation enrichment of GPQGFYSNKLV [PTPN14_Y506_V505F] : 0.406

Short answer for GRSTYYWPRPR [GAGE12J_Y10] : phosphorylation enrichment was 0.481

The value of phosphorylation enrichment measured for the sequence NKVKFYIPDMN [NCR1_Y84] turned out to be 0.66

The sequence listed as MANYMYKAGPS [MAML2_Y515] shows phosphorylation enrichment equal to 0.496

Looking up EEEPVYKAEPE [HCLS1_Y360_E361K] , I see its phosphorylation enrichment listed as 0.891

For record EAGKVYLKAAM [CBFB_Y96_P100A] the listed phosphorylation enrichment is 0.742

Record QYPDIYAREEV [CRX_Y67_V66I] . Reported phosphorylation enrichment: 1.41

Lab note: TFSPPYYHRNC [HGD_Y333_R330S] gave phosphorylation enrichment of 0.654

====

phosphorylation enrichment values, listed per item
System: c-Src
Assay: phosphorylation enrichment, bacterial display (enrichment ratio); higher = better substrate or ligand; peptides without Tyr show the background
Reply with just the number.

// worked examples, phosphorylation enrichment included
CTTIHYMFMCN [TP53_Y234_N235M_YF]
0.38
GTSLIYWTLFT [G6PC3_Y214]
6.99
QEIATYRRLLE [KRT14_Y415]
0.503
TVHPGYGFLSE [PCCA_Y143_A138T]
0.566
IPTPAYQSSPA [PDCD6IP_Y727]
0.369
QVQQIYSDSDL [MIB1_Y376_R371Q]
5.36
TDVSLYPSGGT [TENM4_Y399]
0.269
GDEVEYMSVSF [GCLC_Y53_L55S]
1.49

Proceed to the following item.
Form: sequence = HNQDGYSFPSR [LDLR_Y845_YF] ; phosphorylation enrichment = 1.02

====

Biological target: FGFR1 (UniProt P11362)
Sequence (P11362 whole entry, looked up): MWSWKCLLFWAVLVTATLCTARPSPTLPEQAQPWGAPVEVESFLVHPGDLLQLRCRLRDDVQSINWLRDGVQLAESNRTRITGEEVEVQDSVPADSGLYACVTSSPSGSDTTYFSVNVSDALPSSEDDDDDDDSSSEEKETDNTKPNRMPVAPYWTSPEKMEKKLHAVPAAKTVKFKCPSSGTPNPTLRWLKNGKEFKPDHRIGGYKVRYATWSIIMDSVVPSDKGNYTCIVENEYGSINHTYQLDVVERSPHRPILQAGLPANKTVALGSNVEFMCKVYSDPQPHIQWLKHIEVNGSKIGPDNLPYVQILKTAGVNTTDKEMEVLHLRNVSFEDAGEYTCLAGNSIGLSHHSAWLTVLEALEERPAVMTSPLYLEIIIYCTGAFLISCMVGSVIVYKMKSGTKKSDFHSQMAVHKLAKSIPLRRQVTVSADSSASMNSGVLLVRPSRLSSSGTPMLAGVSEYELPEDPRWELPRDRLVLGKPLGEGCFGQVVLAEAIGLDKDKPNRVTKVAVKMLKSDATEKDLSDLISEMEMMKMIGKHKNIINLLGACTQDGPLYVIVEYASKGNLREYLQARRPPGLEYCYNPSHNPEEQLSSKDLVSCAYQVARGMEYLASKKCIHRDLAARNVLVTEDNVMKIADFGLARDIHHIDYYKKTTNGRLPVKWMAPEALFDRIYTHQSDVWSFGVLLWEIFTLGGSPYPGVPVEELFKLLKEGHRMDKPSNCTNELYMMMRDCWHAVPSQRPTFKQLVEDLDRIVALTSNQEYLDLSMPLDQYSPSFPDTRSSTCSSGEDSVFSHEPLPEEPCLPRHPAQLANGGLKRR
Test: phosphorylation enrichment, bacterial display (enrichment ratio); higher = better substrate or ligand; peptides without Tyr show the background
This listing pairs sequences with measured phosphorylation enrichment.
Answer field: number only, no words.

Example entries and their recorded answers appear below.
KAIMIYVSSFF [ACTN4_Y260_T259I_YF]
0.446
QLHEHYKIHKE [NSMAF_Y626]
0.311
YSKTQYNQVPR [CXADR_Y318_S323R]
0.421
KWTVDYLSQVG [TYW5_Y48]
0.605
KPPPTYESEEE [BRD4_Y599]
0.618
DAVKHYMQFQK [CNGA2_Y395_R399Q]
0.348

Please turn your attention to the following entry.
Entry PSSNLYYRWLT [CNGA3_Y168] — recorded phosphorylation enrichment = 13.5

====

Target: FGFR3 (UniProt P22607)
Assay: phosphorylation enrichment, bacterial display (enrichment ratio); higher = better substrate or ligand; peptides without Tyr show the background
Readout Name: phosphorylation enrichment
The answer should be written as a number, with no unit following it.

Example results:
ESMNTYLQTSP [NAT1_Y208]
0.664
ILQSMYGCDVG [HLA-B_Y123_T118I]
0.624

Now for another entry.
What the record says about LKDEDYLKDIV [HAUS3_Y582] : phosphorylation enrichment is 0.988

====

Test system: Fer (mouse)
Experiment: phosphorylation enrichment, bacterial display (enrichment ratio); higher = better substrate or ligand; peptides without Tyr show the background
Readout Name: phosphorylation enrichment
Give the figure only, with no unit attached.

Example entries begin here.
QYQEKYKQVEQ [HCN4_Y531]
0.576
PKGTGYIKTEL [STAT1_Y701]
0.801
AKKKMYSLKTK [AGXT_Y231_R233L]
0.373

Noted phosphorylation enrichment for MQMEEYRGWVE [BTNL2_Y91] , tested on Fer (mouse): 0.449

The sequence EVKEAYMGSVL [ACAT1_Y90_N93S] , when measured on Fer (mouse), yielded phosphorylation enrichment of 0.398

Measured phosphorylation enrichment for this entry AASTDYYKRGD [PDHA1_Y242] on Fer (mouse): 0.515

Measured phosphorylation enrichment for this entry FEEVVYQAMEE [TACC3_Y684] on Fer (mouse): 1.21
